molecular target: Tyrosine-protein phosphatase non-receptor type 7 (Homo sapiens); experiment: Inhibition of recombinant HePTP
Sequence (P35236 whole entry): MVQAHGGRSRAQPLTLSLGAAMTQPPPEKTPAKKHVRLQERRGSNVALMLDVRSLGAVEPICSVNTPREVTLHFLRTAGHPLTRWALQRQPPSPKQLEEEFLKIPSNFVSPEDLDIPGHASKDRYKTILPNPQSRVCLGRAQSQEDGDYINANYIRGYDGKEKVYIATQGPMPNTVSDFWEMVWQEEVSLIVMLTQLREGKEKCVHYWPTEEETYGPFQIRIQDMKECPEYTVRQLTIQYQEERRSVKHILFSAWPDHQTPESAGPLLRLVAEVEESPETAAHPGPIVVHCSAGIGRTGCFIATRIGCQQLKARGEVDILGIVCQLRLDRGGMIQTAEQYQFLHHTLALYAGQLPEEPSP
Below, each entry is listed with its recorded pIC50.
Answer as the number alone; pIC50 is minus log10 of concentration in mol/L.

Please review the following examples before continuing.
- MOLECULE SMILES: "O=C1/C(=C/c2cn(-c3ccccc3)nc2-c2ccc(OCc3ccccc3Cl)cc2)SC(=S)N1CCS(=O)(=O)O"
  ASSAY SYSTEM: "Tyrosine-protein phosphatase non-receptor type 7 (Homo sapiens)"
  pIC50: 5.92
- MOLECULE SMILES: "O=C1/C(=C/c2cn(-c3ccccc3)nc2-c2ccc(S(=O)(=O)N3CCCCC3)cc2)SC(=S)N1CCS(=O)(=O)O"
  ASSAY SYSTEM: "Tyrosine-protein phosphatase non-receptor type 7 (Homo sapiens)"
  pIC50: 5.62
- MOLECULE SMILES: "O=C1/C(=C/c2cn(-c3ccccc3)nc2-c2ccc(OCc3ccccc3)cc2)SC(=S)N1CCS(=O)(=O)O"
  ASSAY SYSTEM: "Tyrosine-protein phosphatase non-receptor type 7 (Homo sapiens)"
  pIC50: 5.82

// next item, pIC50 requested
Bench note: what pIC50 did O=C1/C(=C/c2cn(-c3ccccc3)nc2-c2ccc(OCc3ccccc3F)cc2)SC(=S)N1CCS(=O)(=O)O show?
6.06
